target or system: K-Ras G12C (Homo sapiens, UniProt P01116, G12C)
Construct: This protein contained 188 amino acids in total, including an N-terminal 6-Histidine tag; made in house; host or cells: E. coli BL21
protocol summary: CAF assay (% CAF; method in Example 7, not in this part)
Type: binding
protocol conditions: 10 uM, 1 h; Table 3
Bucketed by reported % CAF @ 10 uM, 1h, buckets being low class (below 80%), middle class (80% to below 90%), high class (90% or more)

{"compound": "C=CC(=O)N1CCN(c2nc(=O)n3c4c(c(-c5ccc(F)cc5F)c(Cl)cc24)SC[C@H]3COC)[C@@H](C)C1 [Example 130]", "label value": "high class"}
{"compound": "C=CC(=O)N1CCN(c2nc(=O)n3c4c(c(-c5ccc(F)cc5F)c(Cl)cc24)SCC3)[C@@H](CC#N)C1 [Example 104]", "label value": "high class"}
{"compound": "C=CC(=O)N1CCN(c2nc(=O)n3c4c(c(-c5ccc(F)cc5F)c(Cl)cc24)SCC3)[C@@H](C)C1 [Example 193]", "label value": "high class"}
{"compound": "C[C@H]1CN(C(=O)/C=C/C(F)F)CCN1c1nc(=O)n2c3c(c(-c4cc(F)cc(Cl)c4)c(Cl)cc13)SCC2 [Example 63]", "label value": "low class"}
{"compound": "C=CC(=O)N1CCN(c2nc(=O)n3c4c(c(-c5ccc(F)c(C#N)c5)c(Cl)cc24)SCC3)[C@@H](C)C1 [Example 83]", "label value": "middle class"}
{"compound": "C=CC(=O)N1C2CSCC1CN(c1nc(=O)n3c4c(c(-c5ccc(F)cc5F)c(Cl)cc14)SCC3)C2 [Example 129]", "label value": "high class"}
{"compound": "C=CC(=O)N1CCN(c2nc(=O)n3c4c(c(-c5ccc(F)cc5F)c(Cl)cc24)SCC3)C[C@H]1CS(C)(=O)=O [Example 187]", "label value": "middle class"}
{"compound": "C=CC(=O)N1C[C@H](C)N(c2nc(=O)n3c4c(c(-c5ccc(F)cc5F)c(Cl)cc24)S(=O)(=O)CC3)C[C@H]1C (atropisomer, axis not shown) [Example 178]", "label value": "low class"}
{"compound": "C=CC(=O)N1CCN(c2nc(=O)n3c4c(c(-c5ccc(F)cc5F)c(Cl)cc24)SCC3)[C@H](C)C1 [Example 158]", "label value": "low class"}
{"compound": "C=CC(=O)N1CCN(c2nc(=O)n3c4c(c(-c5ccc(F)cc5F)c(Cl)cc24)SCC3)C2CSCC21 (centres unmarked) [Example 144]", "label value": "low class"}
{"compound": "C=C(F)C(=O)N1CCN(c2nc(=O)n3c4c(c(-c5ccc(F)cc5F)c(Cl)cc24)SCC3)C[C@H]1C#N [Example 125]", "label value": "high class"}
{"compound": "C=CC(=O)N1CCN(c2nc(=O)n3c4c(c(-c5ccc(F)cc5F)c(Cl)cc24)SC[C@H]3C)[C@@H](C)C1 [Example 99]", "label value": "middle class"}
{"compound": "C=C(F)C(=O)N1CCN(c2nc(=O)n3c4c(c(-c5cc(F)cc(Cl)c5)c(Cl)cc24)SCC3)[C@@H](C)C1 [Example 64]", "label value": "low class"}

* * *

target or system: Cys12 of the KRAS 4B G12C protein (Homo sapiens, UniProt P01116, G12C)
Construct: This protein contained 188 amino acids in total, including an N-terminal 6-Histidine tag; made in house; host or cells: E. coli BL21
protocol summary: In vitro covalent adduct formation (CAF) assay, LC-MS intact mass
Type: binding
protocol conditions: 10 μM compound, after 1 hour
Protocol: This Example provides a protocol for assessing covalent adduct formation (CAF) between the compounds of the present application and KRAS. In vitro covalent adduct formation assay: Covalent adduct formation (CAF) reactions between Cys12 of the KRAS 4B G12C protein and some of the compounds of Tables 1 to 4 were measured in vitro using liquid chromatography-mass spectrometry (LC-MS). Recombinant Human KRAS 4B protein containing the G12C mutation was used in compound screening experiments. […]
CAF (% after 1 hour) vs 80%: at or above is T, below is F.

{"molecule": "C=CC(=O)N1[C@H](C)CN(c2nc(=O)n3c4c(c(-c5cc(Cl)c(F)cc5F)c(C(F)(F)F)cc24)SCC2(CN(CC(F)(F)F)C2)C3)C[C@@H]1C [Example 1241]", "label value": "T"}
{"molecule": "C=CC(=O)N1[C@H](C)CN(c2nc(=O)n3c4c(c(-c5cc(Br)c(F)cc5F)c(C(F)(F)F)cc24)SC[C@@H](OC)C3)C[C@@H]1C [Example 1239]", "label value": "T"}
{"molecule": "C=CC(=O)N1CCN(c2nc(=O)n3c4c(c(-c5cc(Cl)c(F)cc5F)c(C(F)(F)F)cc24)SC[C@@H](OC)C3)[C@@H]2COC[C@@H]21 [Example 1213]", "label value": "F"}
{"molecule": "C=C(F)C(=O)N1[C@H](C)CN(c2nc(=O)n3c4c(c(-c5ccc(F)cc5F)c(C(F)(F)F)cc24)SC[C@@H](OC)C3)C[C@@H]1C [Example 1220]", "label value": "F"}
{"molecule": "C=CC(=O)N1[C@H](C)CN(c2nc(=O)n3c4c(c(-c5cc(C)c(F)cn5)c(C(F)(F)F)cc24)SC[C@@H](OC)C3)C[C@@H]1C [Example 1209]", "label value": "T"}
